Hello, the source for this data is PubChem BioAssay AID1259407, in case you need it.

- Tested on: CCRIS mutagenicity, Ames/micronucleus/aberration tests
- measurement_protocol: CCRIS mutagenicity studies
- condition_description: Test System: AMES SALMONELLA TYPHIMURIUM; Strain/Indicator: TA1537; Metabolic Activation: NONE; Method: PREINCUBATION
- From the text: The CCRIS database contains chemical records with carcinogenicity, mutagenicity, tumor promotion, and tumor inhibition test results. It was developed by the National Cancer Institute (NCI). Data are derived from studies cited in primary journals, current awareness tools, NCI reports, and other sources. Test results have been reviewed by experts in carcinogenesis and mutagenesis. CCRIS provides historical information from the years 1985 - 2011. It is no longer updated. […]
Active and inactive are the calls of the source. The rule behind the calls is not given here.
Write down the outcome that applies. Available outcomes: active, inactive

* CC(=O)c1cc(NC(=O)Nc2ccc(OCC(O)CNC(C)(C)C)c(C(C)=O)c2)ccc1OCC(O)CNC(C)(C)C (configuration not stated) | inactive
* Cc1cccc(Br)c1 | inactive
* CCCCCCc1ccc(O)cc1O | inactive
* CN(C)[C@@H]1C(=O)C(C(N)=O)=C(O)[C@@]2(O)C(=O)C3=C(O)c4c(O)cccc4[C@@](C)(O)[C@H]3[C@H](O)[C@@H]12 | inactive
* Nc1ccc2cc3ccc(N)cc3nc2c1 | active
* O=C(O)CO.[NH2-].[NH2-].[Pt+2] | inactive

For this compound, state the assay outcome: Nc1c2ccccc2nc2ccc(Br)cc12 active

Call for entry [CH3][Pb]([CH3])([CH3])[CH3] : inactive

Hi team, can someone confirm the assay call for O=C(Cl)c1ccc(Cl)cc1 ? inactive

For Nc1cc(Cl)ccc1[N+](=O)[O-] , what call appears in the results of this test? inactive

Field: outcome | Entry: Cc1[nH]c(=O)c(C#N)cc1-c1ccncc1 inactive

Called result for CCOC(=O)[C@H](CCc1ccccc1)N[C@@H](C)C(=O)N1[C@H](C(=O)O)C[C@H]2CCCC[C@@H]21 inactive

Per the assay record, what outcome was assigned to OC1CCCCC1 ? inactive

---

- Test system: CCRIS mutagenicity, Ames/micronucleus/aberration tests
- measurement_protocol: CCRIS mutagenicity studies
- condition_description: Test System: AMES SALMONELLA TYPHIMURIUM; Strain/Indicator: TA100; Metabolic Activation: RAT LIVER S-9, AROCLOR 1254; Method: PREINCUBATION
Activity calls are given as the source filed them. How the calls were made is not given here.
One label from this list, please: active, inactive

Before answering, review these 3 worked examples.
• CSCCC=O = inactive
• COc1cc(-c2ccc(N)c(OC)c2)ccc1N = active
• O=Cc1ccco1 = inactive

Here's the next entry for you.
What did this assay record as the result for O=C(O)CBr ? active

---

- Test system: CCRIS mutagenicity, Ames/micronucleus/aberration tests
- measurement_protocol: CCRIS mutagenicity studies
- condition_description: Test System: MOUSE LYMPHOMA; Strain/Indicator: L5178Y (TK+/TK-); Metabolic Activation: NONE; Method: SUSPENSION/PLATE
Active and inactive are the calls of the source. No rule for the calls is given here.
value_kind: mutagenic call

Examples from the recorded data:
- C[C@@H]1C[C@@H]([C@H](O)CC2CC(=O)NC(=O)C2)C(=O)[C@@H](C)C1: active; positive
- O=[N+]([O-])c1ccc2c(c1)Cc1ccccc1-2: active; positive
- O: inactive; negative
- Cc1[nH]c(=O)c(C#N)cc1-c1ccncc1: inactive; negative

Below: the item to evaluate.
Quick one: mutagenic call of Nc1ccc2cc3ccc(N)cc3nc2c1 ? active; positive
